tested on: T47D; assay: NCI tumour cell line growth inhibition, 48 h
Calls of active or inactive are those of the source. No stated cut-off is given here; in the data, active = GI50 up to about 1.1 µM and inactive = higher.

molecule: N#Cc1c(NC(=S)NC(=O)c2ccccc2)nc2c(c1-c1ccccc1)CCCC2
GI50: 17.7 µM (inactive)
//
molecule: CCOC(=O)c1cc(-c2ccc([N+](=O)[O-])cc2)c([N+](=O)[O-])[nH]1
GI50: 2.33 µM (inactive)
//
molecule: O=C1C2CCCCC2C(=O)N1n1c(Cc2ccccc2)n[nH]c1=O (stereo not given)
GI50: > 100 µM (inactive)
//
molecule: COC(=O)C1CCC(=O)N1C(c1ccc(OC)cc1)c1ccc(OC)cc1 (stereo not given)
GI50: 78.9 µM (inactive)
//
molecule: O=c1oc2cc(/N=C/c3ccc4c(c3)OCO4)ccc2c2ccccc12
GI50: 43.7 µM (inactive)

----------
system: TK-10; assay: NCI tumour cell line growth inhibition, 48 h
Calls of active or inactive are those of the source. Cut-off read from the data, not from the text of the source: active = GI50 up to about 1.1 µM and inactive = higher.
observation type: GI50

compound: CC(C)(C)c1cc(/C=C/C(=O)CC(=O)/C=C/c2cc(C(C)(C)C)c(O)c(C(C)(C)C)c2)cc(C(C)(C)C)c1O
experimental value: > 50 µM (inactive)
//
compound: NC(=O)/C=C/C(=O)O
experimental value: > 5000 µM (inactive)
//
compound: COC1OC(CO)C(O)C(OC(C)=O)C1NC(=O)N(CCCl)N=O (stereo unspecified)
experimental value: > 100 µM (inactive)
//
compound: CC(=O)OCC1OC(n2c(S)nc(-c3ccccc3)c(C#N)c2=O)C(OC(C)=O)C(OC(C)=O)C1OC(C)=O (stereo unspecified)
experimental value: > 100 µM (inactive)
//
compound: O=C1/C(=C/c2cccnc2)C(n2cccc2)c2c(Br)sc(Br)c21 (stereo unspecified)
experimental value: 1.69 µM (inactive)
//
compound: Nc1ccc(N(S(=O)(=O)c2ccccc2)S(=O)(=O)c2ccccc2)c(Cl)c1
experimental value: 55.1 µM (inactive)
//
compound: COC(=O)C1(O)C(c2ccccc2)NC2(C)CCCC21 (stereo unspecified)
experimental value: > 100 µM (inactive)
//
compound: CCC1OC2C(CC=C(C)C)=C3OC(C)(O)C(C)(CC)C(OC(C)=O)C3=C3OC(=O)C=C1C32 (stereo unspecified)
experimental value: 34.4 µM (inactive)
//
compound: O=[N+]([O-])c1cccc2nccc(NCC(O)CO)c12 (stereo unspecified)
experimental value: 18 µM (inactive)
//
compound: C=C(/C=C/C=C(\CO)CCC=C(C)C)[C@H]1CCC2([C@H](CCCO)/C(=C(/C)C=O)CC[C@]2(C)O)[C@H]1O (stereo partly specified)
experimental value: 82 µM (inactive)
//
compound: Nc1ccccc1Sc1ccc(Cl)cc1
experimental value: 35.6 µM (inactive)
//
compound: CCCCOC(=O)C1C2CCC(O2)C1C(=O)OCCCC (stereo unspecified)
experimental value: > 100 µM (inactive)
//
compound: CC(C)(C)/N=c1/n(C(C)(C)C)oc(=O)n1C(C)(C)C
experimental value: > 100 µM (inactive)
//
compound: O=C1CCCC[C@H]1C(O)CC1CC(=O)N(c2ccccc2)C(=O)C1 (stereo partly specified)
experimental value: > 100 µM (inactive)
//
compound: CC1=NN(C(=O)Cc2ccccc2)C(=O)/C1=C\c1cccc(O)c1
experimental value: > 100 µM (inactive)
//
compound: COC(=O)c1ccc([N+](=O)[O-])c(O)c1
experimental value: > 100 µM (inactive)
//
compound: Cc1ccc(S(=O)(=O)n2c3c(c4ccccc42)CCN2C[C@H]([C@H](C)Br)CC[C@@H]32)cc1
experimental value: > 100 µM (inactive)
//
compound: C/C(=N/S(=O)(=O)c1ccc(Cl)c(Cl)c1)OCC(C)(C)C
experimental value: > 100 µM (inactive)
//
compound: Cc1ccc(/C=C2\NC(=S)N(CN3CCCCC3)C2=O)cc1
experimental value: 69.3 µM (inactive)
//
compound: CCOc1ccc(/N=C/c2ccc3ccccc3n2)cc1
experimental value: > 100 µM (inactive)
//
compound: O=c1ccn(C2OC(CO)C(O)C2F)c(=O)n1Cc1ccccc1 (stereo unspecified)
experimental value: > 100 µM (inactive)
